target: recombinant human PDE-10 enzyme (PDE-10A) (Homo sapiens (Human), UniProt Q9Y233); assay: IMAP PDE Fluorescence Polarization assay, human PDE-10 inhibition (enzyme assay); assay type: biochemical; settings: recombinant human PDE-10, fluorescein-labeled cAMP/cGMP substrate, 40 min at 37° C.
Sequence (Q9Y233 whole entry): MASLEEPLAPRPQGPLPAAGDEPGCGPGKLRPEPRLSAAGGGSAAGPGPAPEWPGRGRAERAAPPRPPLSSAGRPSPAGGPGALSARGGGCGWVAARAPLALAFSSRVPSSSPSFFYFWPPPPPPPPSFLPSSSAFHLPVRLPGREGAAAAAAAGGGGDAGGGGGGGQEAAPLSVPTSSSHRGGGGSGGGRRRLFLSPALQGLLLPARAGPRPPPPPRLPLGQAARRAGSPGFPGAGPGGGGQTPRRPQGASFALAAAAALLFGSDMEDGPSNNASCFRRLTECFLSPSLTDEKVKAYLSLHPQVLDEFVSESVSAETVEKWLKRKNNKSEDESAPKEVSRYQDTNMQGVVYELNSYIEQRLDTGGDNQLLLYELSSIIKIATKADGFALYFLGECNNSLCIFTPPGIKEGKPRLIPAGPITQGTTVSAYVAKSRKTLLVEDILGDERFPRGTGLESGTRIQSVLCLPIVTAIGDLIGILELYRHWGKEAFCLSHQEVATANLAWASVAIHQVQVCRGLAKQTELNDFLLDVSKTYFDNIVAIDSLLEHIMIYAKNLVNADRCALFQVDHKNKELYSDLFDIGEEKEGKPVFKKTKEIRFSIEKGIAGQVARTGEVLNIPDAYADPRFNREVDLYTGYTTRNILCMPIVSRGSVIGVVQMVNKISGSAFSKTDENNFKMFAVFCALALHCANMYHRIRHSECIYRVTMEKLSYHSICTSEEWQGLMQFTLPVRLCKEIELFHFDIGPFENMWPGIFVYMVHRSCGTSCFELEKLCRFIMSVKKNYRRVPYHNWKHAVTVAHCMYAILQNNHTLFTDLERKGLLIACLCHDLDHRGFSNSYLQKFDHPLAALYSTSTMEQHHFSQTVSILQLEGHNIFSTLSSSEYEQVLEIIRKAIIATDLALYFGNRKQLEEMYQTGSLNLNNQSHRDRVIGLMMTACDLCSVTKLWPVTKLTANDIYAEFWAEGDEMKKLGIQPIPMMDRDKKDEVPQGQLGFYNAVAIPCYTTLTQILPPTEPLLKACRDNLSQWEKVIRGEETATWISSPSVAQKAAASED
pIC50: −log10 of the molar value.
Catalogue of compounds with associated pIC50

c1ccc2nc(CCc3ccc4ccc5cccnc5c4n3)ccc2c1 [Compound 159] | > 6.30
Cn1cc(-c2cccc(F)c2)nc1CCc1ccc2ccccc2n1 [Compound 43] | > 6.30
Cn1cc(-c2ccccc2F)nc1CCc1cnc2ccccc2n1 [Compound 48] | > 6.30
Oc1cccc2nc(CCc3cnc4ccccc4n3)[nH]c12 [Compound 99] | 6.00 to 6.30
Cc1cnc2nc(CCc3nc4c5cccnc5ccn4n3)ccc2c1 [Compound 180] | > 6.30
Cn1c(CCc2ccc3ccccc3n2)nc2c3ncccc3ccc21 [Compound 155] | > 6.30

Quote pIC50 reported for Cn1c(/C=C/c2nc3ccccc3c(=O)[nH]2)nc2ccccc21 [Compound 23] please. 5.00 to 6.00

Quote pIC50 reported for Cc1ncc(C)n2nc(CCc3nc4ccccc4cc3F)nc12 [Compound 127] please. > 6.30

Quote pIC50 reported for Cc1ccc(-c2cn(C)c(CCc3cnc4ccccc4n3)n2)cn1 [Compound 173] please. < 5.00

Quote pIC50 reported for Cn1c(CCc2cnc3cccc(Cl)c3n2)nc2c3cccnc3ccc21 [Compound 191] please. > 6.30

Quote pIC50 reported for Cn1cc(-c2ccccc2)nc1CCc1ccc2ccccc2n1 [Compound 19] please. > 6.30

Quote pIC50 reported for c1ccc2nc(CCc3nc4c5cccnc5ccn4n3)cnc2c1 [Compound 188] please. > 6.30

Quote pIC50 reported for Cn1c(CCc2cnc3ccccc3n2)nc2c3c(ccc21)OCCO3 [Compound 211] please. > 6.30

Data provenance is patent US9834564B2.
